- Cond: in n-butyl acetate, 313.15 K

Input smiles: O=C(O)CC[C@H](NC(=O)OCC1c2ccccc2-c2ccccc21)C(=O)O
solubility (mole fraction): 0.00309

---

- Cond: in ethanol, 318.15 K
Assay endpoint: solubility (mole fraction)

Input smiles: O=C(O)CC[C@H](NC(=O)OCC1c2ccccc2-c2ccccc21)C(=O)O
Numeric result: 0.0514

---

- Cond: in acetonitrile, 293.15 K
Assay endpoint: solubility (mole fraction)

Input smiles: O=C(O)CC[C@H](NC(=O)OCC1c2ccccc2-c2ccccc21)C(=O)O
Assay endpoint: solubility (mole fraction)
Result: 0.0008

---

- Cond: in ethanol, 298.15 K

Input smiles: O=C(O)CC[C@H](NC(=O)OCC1c2ccccc2-c2ccccc21)C(=O)O
solubility (mole fraction): 0.0319

---

- Cond: in n-propyl acetate, 308.15 K

Input smiles: O=C(O)CC[C@H](NC(=O)OCC1c2ccccc2-c2ccccc21)C(=O)O
solubility (mole fraction): 0.00247

---

- Cond: in ethanol, 283.15 K
Assay endpoint: solubility (mole fraction)

Input smiles: O=C(O)CC[C@H](NC(=O)OCC1c2ccccc2-c2ccccc21)C(=O)O
Result: 0.0231

---

- Cond: in acetone, 293.15 K

Input smiles: O=C(O)CC[C@H](NC(=O)OCC1c2ccccc2-c2ccccc21)C(=O)O
solubility (mole fraction): 0.0274

---

- Cond: in methanol, 293.15 K

Input smiles: O=C(O)CC[C@H](NC(=O)OCC1c2ccccc2-c2ccccc21)C(=O)O
solubility (mole fraction): 0.0295

---

- Cond: in 2-butanone, 303.15 K

Input smiles: O=C(O)CC[C@H](NC(=O)OCC1c2ccccc2-c2ccccc21)C(=O)O
solubility (mole fraction): 0.0136

---

- Cond: in methyl acetate, 298.15 K
Assay endpoint: solubility (mole fraction)

Input smiles: O=C(O)CC[C@H](NC(=O)OCC1c2ccccc2-c2ccccc21)C(=O)O
Assay endpoint: solubility (mole fraction)
Numeric result: 0.00418

---

- Cond: in methyl acetate, 318.15 K
Assay endpoint: solubility (mole fraction)

Input smiles: O=C(O)CC[C@H](NC(=O)OCC1c2ccccc2-c2ccccc21)C(=O)O
Assay endpoint: solubility (mole fraction)
Numeric result: 0.00726

---

- Cond: in n-propanol, 293.15 K

Input smiles: O=C(O)CC[C@H](NC(=O)OCC1c2ccccc2-c2ccccc21)C(=O)O
solubility (mole fraction): 0.0155

---

- Cond: in n-propanol, 308.15 K

Input smiles: O=C(O)CC[C@H](NC(=O)OCC1c2ccccc2-c2ccccc21)C(=O)O
solubility (mole fraction): 0.0237

---

- Cond: in n-propyl acetate, 298.15 K
Assay endpoint: solubility (mole fraction)

Input smiles: O=C(O)CC[C@H](NC(=O)OCC1c2ccccc2-c2ccccc21)C(=O)O
Numeric result: 0.00204

---

- Cond: in n-pentanol, 293.15 K
Assay endpoint: solubility (mole fraction)

Input smiles: O=C(O)CC[C@H](NC(=O)OCC1c2ccccc2-c2ccccc21)C(=O)O
Result: 0.00845

---

- Cond: in ethanol, 313.15 K

Input smiles: O=C(O)CC[C@H](NC(=O)OCC1c2ccccc2-c2ccccc21)C(=O)O
solubility (mole fraction): 0.0468

---

- Cond: in methanol, 318.15 K

Input smiles: O=C(O)CC[C@H](NC(=O)OCC1c2ccccc2-c2ccccc21)C(=O)O
solubility (mole fraction): 0.0525
